- tested-system: human ghrelin receptor (human, UniProt Q92847 1-366)
- Sequence (Q92847 whole entry): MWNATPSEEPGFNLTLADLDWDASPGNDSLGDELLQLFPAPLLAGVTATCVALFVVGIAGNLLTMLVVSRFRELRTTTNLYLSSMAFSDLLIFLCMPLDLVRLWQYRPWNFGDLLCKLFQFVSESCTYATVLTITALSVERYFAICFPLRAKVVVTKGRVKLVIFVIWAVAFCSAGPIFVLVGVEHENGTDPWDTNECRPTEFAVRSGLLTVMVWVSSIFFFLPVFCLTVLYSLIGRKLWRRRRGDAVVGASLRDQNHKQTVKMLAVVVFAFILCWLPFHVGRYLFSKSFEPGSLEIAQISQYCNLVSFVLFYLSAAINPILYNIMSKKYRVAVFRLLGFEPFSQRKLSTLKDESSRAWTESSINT
- assay-protocol: cell-based or functional assay
readout-kind: Emax [Δ %], inverse agonistic activity, inositol trisphosphate turnover assay

[[record]]
binder = "KXFXLL (tert-butyl-D-phenylalanine (D-tBf) at 2; D-Trp at 4; C-terminal amide) [K-(D-tBf)-FwLL-NH2]"
value_measured = "76 Δ %"

[[record]]
binder = "KXFXLL (D-Phe at 2; D-Trp at 4; C-terminal amide) [K-(D-Phe)-FwLL-NH2]"
value_measured = "62 Δ %"

[[record]]
binder = "KXFXLL (beta-(3-benzothienyl)-D-alanine (D-Bth) at 2; D-Trp at 4; C-terminal amide) [K-(D-Bth)-FwLL-NH2]"
value_measured = "81 Δ %"


Q) // lookup Emax [Δ %], inverse agonistic activity, inositol trisphosphate turnover assay for KXFXLL (4-benzoyl-D-phenylalanine (D-Bpa) at 2; D-Trp at 4; C-terminal amide) [K-(D-Bpa)-FwLL-NH2]
A) 67 Δ %
